tested on: 945468-187-T-J2-PDC spheroids viability; assay: Anticancer human tumor 945468-187-T-J2-PDC patient-derived rectal carcinoma cell line growth inhibition [PI3K]; conditions: second compound 0.1 µM; first compound 3.16 µM; active compounds read low; spheroids with HUVEC and MSC

| Molecule | viability, T/C (%) |
| --- | --- |
| CC(C)NCC(C(=O)N1CCN(c2ncnc3c2C(C)CC3O)CC1)c1ccc(Cl)cc1 (configuration not stated) + Cc1nc(NC(=O)N2CCCC2C(N)=O)sc1-c1ccnc(C(C)(C)C(F)(F)F)c1 | 106 |
| CC(Cn1ccc(-c2ccc(C#N)c(Cl)c2)n1)NC(=O)c1cc(C(C)O)[nH]n1 (configuration not stated) + CC(Nc1ncnc2nc[nH]c12)c1cc2cccc(Cl)c2c(=O)n1-c1ccccc1 | 117 |
| Cn1nccc1Nc1nccc(-c2ccn(C(CO)c3ccc(Cl)c(F)c3)c(=O)c2)n1 (configuration not stated) + Cc1nc(NC(=O)N2CCCC2C(N)=O)sc1-c1ccnc(C(C)(C)C(F)(F)F)c1 | 87.4 |
| CC1(C)CCC(CN2CCN(c3ccc(C(=O)NS(=O)(=O)c4ccc(NCC5CCOCC5)c([N+](=O)[O-])c4)c(Oc4cnc5[nH]ccc5c4)c3)CC2)=C(c2ccc(Cl)cc2)C1 + Cc1nc(NC(=O)N2CCCC2C(N)=O)sc1-c1ccnc(C(C)(C)C(F)(F)F)c1 | 110 |
| CC(Cn1ccc(-c2ccc(C#N)c(Cl)c2)n1)NC(=O)c1cc(C(C)O)[nH]n1 (configuration not stated) + CC(Nc1ccc2c(c1)OCCn1cc(N3C(=O)OCC3C(F)F)nc1-2)C(N)=O | 101 |
| CC1(C)CCC(CN2CCN(c3ccc(C(=O)NS(=O)(=O)c4ccc(NCC5CCOCC5)c([N+](=O)[O-])c4)c(Oc4cnc5[nH]ccc5c4)c3)CC2)=C(c2ccc(Cl)cc2)C1 + CC(Nc1ncnc2nc[nH]c12)c1cc2cccc(Cl)c2c(=O)n1-c1ccccc1 | 96.5 |
| CC(Cn1ccc(-c2ccc(C#N)c(Cl)c2)n1)NC(=O)c1cc(C(C)O)[nH]n1 (configuration not stated) + COc1c(OCCCN2CCOCC2)ccc2c3n(c(=NC(=O)c4cnc(N)nc4)nc12)CCN3 | 84.8 |

* * *

test system: 945468-187-T-J2-PDC spheroids viability; assay: Anticancer human tumor 945468-187-T-J2-PDC cell line growth inhibition [PI3K]; details: second compound 0.1 µM; first compound 0.000316 µM; active compounds read low; spheroids with HUVEC and MSC;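 note: spheroids exposed to compounds for seven days before reading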
Readout Kind: viability, T/C

| Compound | Readout Kind | Data Value |
| --- | --- | --- |
| CC(=O)c1c(C)c2cnc(Nc3ccc(N4CCNCC4)cn3)nc2n(C2CCCC2)c1=O + Cc1nc(NC(=O)N2CCCC2C(N)=O)sc1-c1ccnc(C(C)(C)C(F)(F)F)c1 | viability, T/C | 86.1% |
| CC(=O)c1c(C)c2cnc(Nc3ccc(N4CCNCC4)cn3)nc2n(C2CCCC2)c1=O + CC(Nc1ccc2c(c1)OCCn1cc(N3C(=O)OCC3C(F)F)nc1-2)C(N)=O | viability, T/C | 92.5% |
| CC(C)n1nc(-c2ccc3oc(N)nc3c2)c2c(N)ncnc21 + COc1c(OCCCN2CCOCC2)ccc2c3n(c(=NC(=O)c4cnc(N)nc4)nc12)CCN3 | viability, T/C | 76.2% |
| Cn1ncnc1[C@H]1c2n[nH]c(=O)c3cc(F)cc(c23)N[C@@H]1c1ccc(F)cc1 + CC(Nc1ncnc2nc[nH]c12)c1cc2cccc(Cl)c2c(=O)n1-c1ccccc1 | viability, T/C | 89% |
| Cn1ncnc1[C@H]1c2n[nH]c(=O)c3cc(F)cc(c23)N[C@@H]1c1ccc(F)cc1 + COc1c(OCCCN2CCOCC2)ccc2c3n(c(=NC(=O)c4cnc(N)nc4)nc12)CCN3 | viability, T/C | 93.2% |
| Cn1ncnc1[C@H]1c2n[nH]c(=O)c3cc(F)cc(c23)N[C@@H]1c1ccc(F)cc1 + CC(Nc1ccc2c(c1)OCCn1cc(N3C(=O)OCC3C(F)F)nc1-2)C(N)=O | viability, T/C | 87.6% |
